# experimentalSystem: T1, orthogonal hCD122 receptor (hoRb), hCD122 with H133D and Y134F (human, UniProt P14784 27-550)
# T1 sequence: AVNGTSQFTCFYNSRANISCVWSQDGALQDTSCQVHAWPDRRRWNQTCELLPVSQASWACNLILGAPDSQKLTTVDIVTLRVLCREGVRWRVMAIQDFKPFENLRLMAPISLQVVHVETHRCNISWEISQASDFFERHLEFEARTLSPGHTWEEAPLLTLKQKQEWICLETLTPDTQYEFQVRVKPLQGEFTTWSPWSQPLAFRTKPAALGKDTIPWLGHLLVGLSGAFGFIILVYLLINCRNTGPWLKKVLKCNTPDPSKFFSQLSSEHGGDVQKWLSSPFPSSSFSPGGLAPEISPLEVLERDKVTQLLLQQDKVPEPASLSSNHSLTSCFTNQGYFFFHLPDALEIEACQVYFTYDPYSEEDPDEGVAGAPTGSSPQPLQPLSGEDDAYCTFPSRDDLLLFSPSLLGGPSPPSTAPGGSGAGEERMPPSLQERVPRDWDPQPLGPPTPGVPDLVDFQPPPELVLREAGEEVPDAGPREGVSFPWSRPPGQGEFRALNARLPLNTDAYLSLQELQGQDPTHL
# methodDescription: cell-based or functional assay
Decide using NKL Ortho Proliferation Signal 1:2: a value greater than or equal to 50000 is T, a smaller one is F.

query: Hi team, for ΔQ13, SQVLKA (ligand) APTSSSTKKTQLLSQLLVLLKAILNGINNYKNPKLTRMLTFKFYMPKKATELKHLQCLEEELKPLEEVLNLAQSKNFHLRPRDLISNINVIVLELKGSETTFMCEYADETATIVEFLNRWITFCQSIISTLT , is the recorded NKL Ortho Proliferation Signal 1:2 at or above 50000?
result: F

query: Check this binder for NKL Ortho Proliferation Signal 1:2 at or above 50000: L18W, SQVLKA (ligand) APTSSSTKKTQLQLSQLWVLLKAILNGINNYKNPKLTRMLTFKFYMPKKATELKHLQCLEEELKPLEEVLNLAQSKNFHLRPRDLISNINVIVLELKGSETTFMCEYADETATIVEFLNRWITFCQSIISTLT
result: F

query: Threshold query (NKL Ortho Proliferation Signal 1:2 >= 50000) on V91R, SQVLKA (ligand) APTSSSTKKTQLQLSQLLVLLKAILNGINNYKNPKLTRMLTFKFYMPKKATELKHLQCLEEELKPLEEVLNLAQSKNFHLRPRDLISNINRIVLELKGSETTFMCEYADETATIVEFLNRWITFCQSIISTLT
result: F

query: Check if NKL Ortho Proliferation Signal 1:2 >= 50000 (inclusive). Item: SQVLKT (ligand) APTSSSTKKTQLQLSQLLVLLKTILNGINNYKNPKLTRMLTFKFYMPKKATELKHLQCLEEELKPLEEVLNLAQSKNFHLRPRDLISNINVIVLELKGSETTFMCEYADETATIVEFLNRWITFCQSIISTLT
result: T

query: Is it the case that K97Q, SQVLKA (ligand) APTSSSTKKTQLQLSQLLVLLKAILNGINNYKNPKLTRMLTFKFYMPKKATELKHLQCLEEELKPLEEVLNLAQSKNFHLRPRDLISNINVIVLELQGSETTFMCEYADETATIVEFLNRWITFCQSIISTLT has NKL Ortho Proliferation Signal 1:2 reaching or exceeding 50000?
result: T

query: Given T3N, SQVLKA (ligand) APNSSSTKKTQLQLSQLLVLLKAILNGINNYKNPKLTRMLTFKFYMPKKATELKHLQCLEEELKPLEEVLNLAQSKNFHLRPRDLISNINVIVLELKGSETTFMCEYADETATIVEFLNRWITFCQSIISTLT , state whether its NKL Ortho Proliferation Signal 1:2 is at least 50000.
result: T
